Tested on: Caco-2 bidirectional permeability, efflux ratio, LC-MS/MS
Assay: Inhibitors of N370S glucocerebrosidase as a Potential Chaperone Treatment of Gaucher Disease: Efflux Ratio Profiling
Details: stronger effect = lower value
measurement-kind: efflux ratio
# print the numeric value only

Endpoint output: efflux ratio of `S=C(NCCCc1cnc[nH]1)NCCCN(Cc1ccc(Cl)c(Cl)c1)c1ccc(Br)cn1` . Value?
9.9
